targetOrSystem: human PD-1 (Jurkat-PD-1 cells) / PE-labeled human PD-L1-Ig (Homo sapiens, UniProt Q15116)
Construct: expressed in transfected cells; host or cells: Jurkat cell line over-expressing human PD-1
Sequence (Q15116 25-288): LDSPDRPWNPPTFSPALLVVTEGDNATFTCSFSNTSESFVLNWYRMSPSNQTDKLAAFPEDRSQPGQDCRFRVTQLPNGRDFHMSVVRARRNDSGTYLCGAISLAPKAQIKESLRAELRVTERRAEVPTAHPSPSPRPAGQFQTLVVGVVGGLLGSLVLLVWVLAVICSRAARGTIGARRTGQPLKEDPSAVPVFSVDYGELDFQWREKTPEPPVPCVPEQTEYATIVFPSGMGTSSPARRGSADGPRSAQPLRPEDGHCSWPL
assaySummary: Jurkat-PD-1 Cell Binding High-Content Screening Assay (CBA); Jurkat hPD1-PDL1 assay
measurementContext: Jurkat cell line over-expressing human PD-1; PE-labeled PD-L1-Ig 20 nM final; compound incubated 2 hours at 37° C.; read-out: Jurkat HPD1-PDL1 IC50
Positions of bridges follow the written chain, without caps; N, C: chain ends. Non-standard residues stand in square brackets, D forms with d. Residues, ends and D or L forms follow the SMILES beside them. Bip = N[C@@H](Cc1ccc(-c2ccccc2)cc1)C(=O)O; NMeY = CN[C@@H](Cc1ccc(O)cc1)C(=O)O; NMeF = CN[C@@H](Cc1ccccc1)C(=O)O; NMeA = CN[C@@H](C)C(=O)O; Orn = NCCC[C@H](N)C(=O)O; Dab = NCC[C@H](N)C(=O)O
property: IC50 (nM)
One number for each entry, in nM.

CC(C)C[C@@H]1NC(=O)[C@H](CCCNC(=N)N)NC(=O)[C@H](Cc2ccc(O)cc2)N(C)C(=O)[C@H](C)N(C)C(=O)[C@H](CCCNC(=N)N)NC(=O)[C@H](Cc2ccc(-c3ccccc3)cc2)NC(=O)[C@H](C(C)C)NC(=O)[C@H](Cc2c[nH]c3ccccc23)NC(=O)[C@H](CC(=O)O)NC(=O)[C@H](Cc2ccc(O)cc2)NC(=O)[C@H](Cc2ccccc2)NC(=O)CSC[C@@H](C(=O)NCC(N)=O)NC(=O)[C@H](CO)NC(=O)[C@H](C(C)C)NC1=O [Example 1280] ({CH2CO}-FYDWV[Bip]R[NMeA][NMeY]RLVSCG-NH2; thioether N-14) | 500
CC(C)C[C@@H]1NC(=O)[C@H](Cc2c[nH]c3ccccc23)NC(=O)[C@H](CC(=O)O)NC(=O)[C@H](Cc2ccc(O)cc2)NC(=O)[C@H](Cc2ccccc2)NC(=O)CSC[C@@H](C(=O)NCC(N)=O)NC(=O)[C@H]([C@@H](C)O)NC(=O)[C@H](C(C)C)NC(=O)[C@H](CC(C)C)NC(=O)[C@H](CCN)NC(=O)[C@H]2CCCN2C(=O)[C@H](CCCN)NC(=O)[C@H](C(C)C)NC(=O)[C@H](Cc2ccc(-c3ccccc3)cc2)NC1=O [Example 1420] ({CH2CO}-FYDWL[Bip]V[Orn][dP][Dab]LVTCG-NH2; thioether N-14) | 130
CC(C)C[C@@H]1NC(=O)[C@H](CCCNC(=N)N)NC(=O)[C@H](Cc2ccccc2)N(C)C(=O)[C@H](C)N(C)C(=O)[C@H](CCC(=O)O)NC(=O)[C@H](Cc2ccc(-c3ccccc3)cc2)NC(=O)[C@H](C(C)C)NC(=O)[C@H](Cc2c[nH]c3ccccc23)NC(=O)[C@H](CC(=O)O)NC(=O)[C@H](Cc2ccc(O)cc2)NC(=O)[C@H](CCC(N)=O)NC(=O)CSC[C@@H](C(=O)NCC(N)=O)NC(=O)[C@H](CO)NC(=O)[C@H](C(C)C)NC1=O [Example 1286] ({CH2CO}-QYDWV[Bip]E[NMeA][NMeF]RLVSCG-NH2; thioether N-14) | 750

Next item in the queue.
Entry CC(C)C[C@@H]1NC(=O)[C@H](CCCNC(=N)N)NC(=O)[C@H](Cc2ccccc2)N(C)C(=O)[C@H](C)N(C)C(=O)[C@H](CCC(=O)O)NC(=O)[C@H](Cc2ccc(-c3ccccc3)cc2)NC(=O)[C@H](C(C)C)NC(=O)[C@H](Cc2c[nH]c3ccccc23)NC(=O)[C@H](CC(=O)O)NC(=O)[C@H](Cc2ccc(O)cc2)NC(=O)[C@H](CC(N)=O)NC(=O)CSC[C@@H](C(=O)N[C@@H](C)C(N)=O)NC(=O)[C@H](CO)NC(=O)[C@H](C(C)C)NC1=O [Example 1382] ({CH2CO}-NYDWV[Bip]E[NMeA][NMeF]RLVSCA-NH2; thioether N-14) : reported IC50 = ? 130
